assayTarget: human MetAP2 (Homo sapiens)
Construct: made in house; host or cells: Sf9 insect cells (baculovirus)
Sequence (P50579 whole entry): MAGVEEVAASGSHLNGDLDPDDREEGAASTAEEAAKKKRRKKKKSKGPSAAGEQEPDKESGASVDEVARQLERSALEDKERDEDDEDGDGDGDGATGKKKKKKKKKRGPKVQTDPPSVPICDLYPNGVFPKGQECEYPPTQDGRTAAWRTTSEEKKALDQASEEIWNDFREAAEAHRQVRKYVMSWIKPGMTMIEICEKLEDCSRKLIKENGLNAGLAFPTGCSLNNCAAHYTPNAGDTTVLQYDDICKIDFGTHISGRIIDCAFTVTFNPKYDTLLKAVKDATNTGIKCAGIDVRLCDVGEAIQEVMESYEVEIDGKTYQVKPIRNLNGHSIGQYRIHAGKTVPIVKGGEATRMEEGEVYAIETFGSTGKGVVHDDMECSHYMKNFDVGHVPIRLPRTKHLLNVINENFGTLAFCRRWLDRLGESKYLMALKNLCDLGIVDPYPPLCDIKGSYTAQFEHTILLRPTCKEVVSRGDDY
methodDescription: MetAP2 enzymatic screening test (isolated enzyme, Met-Pro-Arg-pNa substrate, absorbance at 405 nm)
Format: biochemical
measurementParameters: read-out: % inhibition hMETAP2 at 100 nM
quantityName: inhibition at 0.1 µM (%)
// return numeric value only (unit: %, not printed)

Problem: What does the record list as inhibition at 0.1 µM for `CCn1c(=O)c2cn[nH]c2c2ccc(-c3ccc(N4CCNCC4)cc3)cc21` ?
Result: 77

Problem: Ok, now `CCN(CC)S(=O)(=O)c1ccccc1-c1ccc2c3[nH]ncc3c(=O)n(CC(F)(F)F)c2c1`
Result: 45

Problem: Ok, now `Cc1cc(-c2ccc3c4[nH]ncc4c(=O)n(CC(F)(F)F)c3c2)cnc1-n1cnnc1`
Result: 44
